Provide the reported logP of each item.
Provide a numeric answer; units are not to be included.

Enquiry: # logP lookup, item CN(C)C(=O)OCCCc1cccnc1
Return: 1.44

Enquiry: Also CCC(CC)COC(=O)N(CC)CC , if possible.
Return: 3.6

Enquiry: Would you kindly repeat that for CCC(CC)COC(=O)N(C)C ?
Return: 2.87
